System: HCMV AD169-Bac-Luc2 US2-US6 clone #26 virus
Assay: HCMV AD169-Bac Luciferase Assay (Example B)
Format: cell-based, Human Cytomegalovirus
Conditions: Human betaherpesvirus 5, AD169, MRC5, 72 h, read-out: EC50 Example B
Excerpt: This assay format is a luciferase reporter-based assay that determines the ability of compounds to inhibit the infection by detecting a luciferase signal decrease following the addition of BIGlo substrate (preparation indicated below) directly in the culture media. Mono-oxygenation of luciferin is catalyzed by luciferase in the presence of Mg2+, ATP and molecular oxygen. The generation of oxyluciferin is a luminescent reaction that can be detected with the proper platereader. […]
For each record, check the reported EC50: if it is below 90 nM write 1 (yes), else write 0 (no).

Reference set (5 entries):
>>> assigned_category("CC(c1cccc(C(F)(F)F)c1)c1nc(-c2ccc(NC(=O)c3cscn3)cn2)c[nH]1 (centres unmarked) [Compound 1087]")
"1 (yes)"
>>> assigned_category("Cc1c(Cl)cccc1-c1cn(C)c(-c2ccc(NC(=O)c3cscn3)nc2)n1 [Compound 1103]")
"0 (no)"
>>> assigned_category("O=C(Nc1ccc(-c2nc(-c3cccc(Cl)c3)nn2CC(O)CO)cc1)c1cscn1 (centres unmarked) [Compound 1121]")
"1 (yes)"
>>> assigned_category("O=C(Nc1ccc(-c2nc(-c3cccc(C(F)(F)F)c3)nn2CCCN2CCOCC2)cc1)c1cscn1 [Compound 1077]")
"0 (no)"
>>> assigned_category("CC(O)(c1cccc(C(F)(F)F)c1)c1nc(-c2ccc(NC(=O)c3cscn3)cn2)cn1CCCO (centres unmarked) [Compound 1113]")
"0 (no)"

Strictly below 90 nM in EC50? O=C(Nc1ccn(-c2nnc(-c3cccc(Cl)c3)[nH]2)c(=O)c1)c1cscn1 [Compound 1117]
0 (no)

Strictly below 90 nM in EC50? CC(c1cccc(C(F)(F)F)c1)c1nc(-n2ccc(NC(=O)c3cscn3)cc2=O)c[nH]1 (centres unmarked) [Compound 1116]
1 (yes)

###

System: HCMV AD169-Bac-Luc2 US2-US6 clone #26 virus
Assay: HCMV AD169-Bac Luciferase Assay (Example B)
Assay type: cell-based, Human Cytomegalovirus
Settings: Human betaherpesvirus 5, AD169, MRC5, 72 h, read-out: EC50 Example B
Source text: This assay format is a luciferase reporter-based assay that determines the ability of compounds to inhibit the infection by detecting a luciferase signal decrease following the addition of BIGlo substrate (preparation indicated below) directly in the culture media. Mono-oxygenation of luciferin is catalyzed by luciferase in the presence of Mg2+, ATP and molecular oxygen. The generation of oxyluciferin is a luminescent reaction that can be detected with the proper platereader. […]
Entries and their pEC50 values follow.
Scale: negative log10 of molar concentration, which is what pEC50 denotes.

Past entries and their recorded results:
>>> recorded_number("CC(O)(c1cccc(C(F)(F)F)c1)c1nc(-c2ccc(NC(=O)c3cscn3)cn2)c[nH]1 (stereo not shown)")
6.69
>>> recorded_number("O=C(O)CCn1nc(-c2cccc(Cl)c2)nc1-c1ccc(NC(=O)c2cscn2)cc1")
6.19

Could you share what pEC50 was measured for Cc1cccc(-c2nnc(-c3ccc(NC(=O)c4cscn4)cc3)[nH]2)c1 , tested on HCMV AD169-Bac-Luc2 US2-US6 clone #26 virus?
7.03

Could you share what pEC50 was measured for CC(O)(c1cccc(C(F)(F)F)c1)c1nc(-n2ccc(NC(=O)c3cscn3)cc2=O)cn1CCCOCc1ccccc1 (stereo not shown) , tested on HCMV AD169-Bac-Luc2 US2-US6 clone #26 virus?
6.34
